Hey, just so you know, these numbers are from ChEMBL document CHEMBL5390261.

Target or test system: Xanthine dehydrogenase/oxidase (Homo sapiens, UniProt P47989)
Sequence (P47989 whole entry): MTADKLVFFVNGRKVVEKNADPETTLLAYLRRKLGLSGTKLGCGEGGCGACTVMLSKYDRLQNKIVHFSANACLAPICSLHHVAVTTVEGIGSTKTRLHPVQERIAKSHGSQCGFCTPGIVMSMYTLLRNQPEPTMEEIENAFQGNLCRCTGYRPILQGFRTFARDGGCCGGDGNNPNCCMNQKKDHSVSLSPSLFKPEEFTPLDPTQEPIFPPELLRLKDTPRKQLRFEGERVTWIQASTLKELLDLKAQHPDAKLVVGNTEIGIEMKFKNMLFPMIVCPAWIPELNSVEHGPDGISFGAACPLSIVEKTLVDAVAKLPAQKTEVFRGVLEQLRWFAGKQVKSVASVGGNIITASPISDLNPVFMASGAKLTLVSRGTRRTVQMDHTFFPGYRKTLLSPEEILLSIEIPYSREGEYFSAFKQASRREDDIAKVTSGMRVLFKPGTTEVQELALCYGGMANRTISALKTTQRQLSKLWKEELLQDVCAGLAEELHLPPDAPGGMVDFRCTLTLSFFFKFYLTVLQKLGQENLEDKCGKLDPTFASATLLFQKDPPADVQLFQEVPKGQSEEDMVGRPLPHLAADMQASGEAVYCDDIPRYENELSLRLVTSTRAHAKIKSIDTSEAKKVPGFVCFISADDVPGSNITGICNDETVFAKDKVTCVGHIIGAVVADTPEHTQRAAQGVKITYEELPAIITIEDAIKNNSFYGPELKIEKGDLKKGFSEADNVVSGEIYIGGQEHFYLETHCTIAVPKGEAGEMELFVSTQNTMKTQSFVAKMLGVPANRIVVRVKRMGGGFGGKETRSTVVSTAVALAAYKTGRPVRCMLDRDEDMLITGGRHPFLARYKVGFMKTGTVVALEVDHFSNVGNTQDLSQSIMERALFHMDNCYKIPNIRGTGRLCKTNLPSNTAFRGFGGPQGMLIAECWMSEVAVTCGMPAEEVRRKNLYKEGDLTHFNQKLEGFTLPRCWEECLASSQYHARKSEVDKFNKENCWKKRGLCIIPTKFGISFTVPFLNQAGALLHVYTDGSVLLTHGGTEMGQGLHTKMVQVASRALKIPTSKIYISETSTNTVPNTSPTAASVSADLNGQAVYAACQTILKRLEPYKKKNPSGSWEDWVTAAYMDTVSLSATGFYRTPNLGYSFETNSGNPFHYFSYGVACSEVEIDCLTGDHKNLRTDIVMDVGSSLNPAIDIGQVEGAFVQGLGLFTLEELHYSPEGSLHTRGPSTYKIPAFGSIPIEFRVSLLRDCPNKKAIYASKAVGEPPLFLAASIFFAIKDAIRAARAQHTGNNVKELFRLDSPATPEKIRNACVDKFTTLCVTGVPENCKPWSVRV
Measurement description: Inhibition of XO (unknown origin) using xanthine as substrate assessed as reduction in uric acid formation by double beam spectrophotometric analysis
Endpoint name: IC50 (µM)

1) O=c1oc2c(O)ccc(-c3oc4cc(O)cc(O)c4c(=O)c3O)c2s1 :: 0.05

----------
Target or test system: Xanthine dehydrogenase/oxidase (Homo sapiens, UniProt P47989)
Measurement description: Inhibition of XO (unknown origin) using xanthine as substrate assessed as reduction in uric acid formation by FluoSTAR OPTIMA plate reader analysis
Endpoint name: IC50 (nM)

1. COc1ccc([C@@H]2CC(=O)c3c(O)cc(O)cc3O2)cc1O :: 840

----------
Target or test system: Xanthine dehydrogenase/oxidase (Homo sapiens, UniProt P47989)
Measurement description: Inhibition of XO (unknown origin) using xanthine as substrate preincubated for 3 hrs followed by substrate addition by UV-Vis spectrophotometric analysis
pIC50: −log10 of the molar value.
Endpoint name: pIC50

1) O=c1cc(-c2ccccc2)oc2cc(O)cc(O)c12 [CHRYSIN] :: 5.90

----------
Target or test system: Xanthine dehydrogenase/oxidase (Bos taurus, UniProt P80457)
Sequence (P80457 whole entry): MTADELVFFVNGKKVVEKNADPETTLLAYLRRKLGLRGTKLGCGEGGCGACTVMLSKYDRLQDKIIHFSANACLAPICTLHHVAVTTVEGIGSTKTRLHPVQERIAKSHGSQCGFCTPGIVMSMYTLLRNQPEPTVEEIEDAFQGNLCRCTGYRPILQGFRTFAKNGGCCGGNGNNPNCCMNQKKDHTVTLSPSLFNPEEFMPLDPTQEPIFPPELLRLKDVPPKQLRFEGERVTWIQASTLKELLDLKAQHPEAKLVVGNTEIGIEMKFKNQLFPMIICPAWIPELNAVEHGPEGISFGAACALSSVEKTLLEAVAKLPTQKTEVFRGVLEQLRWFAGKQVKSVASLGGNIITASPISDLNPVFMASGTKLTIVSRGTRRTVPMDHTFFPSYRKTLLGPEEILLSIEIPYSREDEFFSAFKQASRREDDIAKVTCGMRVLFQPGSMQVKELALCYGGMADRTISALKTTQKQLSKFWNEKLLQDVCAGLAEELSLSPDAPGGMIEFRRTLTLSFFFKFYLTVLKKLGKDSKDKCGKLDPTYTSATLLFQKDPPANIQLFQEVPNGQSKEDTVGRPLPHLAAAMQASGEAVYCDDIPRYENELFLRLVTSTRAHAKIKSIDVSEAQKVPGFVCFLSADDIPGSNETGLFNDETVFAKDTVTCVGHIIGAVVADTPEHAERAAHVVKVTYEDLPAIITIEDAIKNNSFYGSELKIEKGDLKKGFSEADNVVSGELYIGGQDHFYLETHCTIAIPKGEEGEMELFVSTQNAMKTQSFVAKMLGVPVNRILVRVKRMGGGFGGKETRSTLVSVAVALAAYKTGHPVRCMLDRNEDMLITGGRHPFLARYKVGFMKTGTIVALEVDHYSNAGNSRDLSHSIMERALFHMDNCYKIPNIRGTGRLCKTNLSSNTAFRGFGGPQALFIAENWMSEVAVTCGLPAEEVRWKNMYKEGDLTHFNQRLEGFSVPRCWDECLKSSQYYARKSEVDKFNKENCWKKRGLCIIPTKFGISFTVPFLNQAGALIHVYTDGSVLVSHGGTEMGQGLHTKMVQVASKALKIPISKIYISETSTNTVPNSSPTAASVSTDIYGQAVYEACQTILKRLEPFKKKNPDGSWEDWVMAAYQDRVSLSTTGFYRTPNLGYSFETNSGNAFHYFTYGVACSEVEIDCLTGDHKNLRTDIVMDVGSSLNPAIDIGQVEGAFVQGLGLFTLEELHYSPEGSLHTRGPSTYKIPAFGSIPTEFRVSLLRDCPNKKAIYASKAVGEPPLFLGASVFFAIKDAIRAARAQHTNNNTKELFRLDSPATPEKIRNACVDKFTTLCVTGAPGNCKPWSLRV
pIC50: −log10 of the molar value.
Endpoint name: pIC50

1. O=c1oc2ccccc2c2c1C(c1cccs1)C=C(c1ccccc1)O2 (stereo unspecified) :: 5.66

----------
Target or test system: Xanthine dehydrogenase/oxidase (Homo sapiens)
Measurement description: Inhibition of XO (unknown origin) by microtitre plate analysis
Each record here notes measured IC50.
Endpoint name: IC50 (µM)

1) O=c1ccc2cc(O)c(O)cc2o1 [ESCULETIN] :: 42
2) COc1cc(O)cc2c(=O)oc(O)c(C)c12 :: 2.97
